Molecular target: human MC3R (Homo sapiens, UniProt P41968)
Construct: expressed in transfected cells; host or cells: HEK-293 cells stably expressing the GScAMP22F split-luciferase cAMP sensor (parent reporter line from Promega); MC3R clone generated in-house, G418 selection
Sequence (P41968 whole entry): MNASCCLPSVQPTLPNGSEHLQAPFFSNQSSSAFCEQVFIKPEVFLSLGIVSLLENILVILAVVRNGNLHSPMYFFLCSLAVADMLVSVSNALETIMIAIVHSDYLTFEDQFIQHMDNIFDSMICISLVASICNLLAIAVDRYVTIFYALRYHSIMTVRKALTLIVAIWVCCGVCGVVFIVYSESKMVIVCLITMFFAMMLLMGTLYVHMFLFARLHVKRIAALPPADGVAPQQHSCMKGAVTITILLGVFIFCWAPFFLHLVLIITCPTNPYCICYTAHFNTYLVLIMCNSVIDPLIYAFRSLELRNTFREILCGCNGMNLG
Assay: split-luciferase cAMP sensor assay, agonist mode (measurement window 1), hMC3R
Format: cell-based
Conditions: agonist mode, hMC3R stable cell line; read-out: MC3R cAMP EC50
Positions of bridges follow the written chain, without caps; N, C: chain ends. Non-standard residues stand in square brackets, D forms with d. Residues, ends and D or L forms follow the SMILES beside them. Phe(4-Br) = N[C@@H](Cc1ccc(Br)cc1)C(=O)O; dPhe(4-Br) = N[C@H](Cc1ccc(Br)cc1)C(=O)O; d2Nal = N[C@H](Cc1ccc2ccccc2c1)C(=O)O; Cit = NC(=O)NCCC[C@H](N)C(=O)O; Nle = CCCC[C@H](N)C(=O)O; Aib = CC(C)(N)C(=O)O

compound | experimentalSystem | resultOperator | EC50, nM
CC(=O)N[C@@H](CCCNC(=N)N)C(=O)N[C@H]1CSSC[C@@H](C(=O)N[C@@H](CCCCN)C(=O)N2CCC[C@H]2C(=O)N[C@H](C(N)=O)C(C)C)NC(=O)[C@@H](Cc2c[nH]c3ccccc23)NC(=O)[C@H](CCCNC(=N)N)NC(=O)[C@@H](Cc2ccc(Br)cc2)NC(=O)[C@H](CCCNC(=N)N)NC(=O)[C@@H](C)NC1=O [CTX-1216] (Ac-RC[dA]R[dPhe(4-Br)]R[dW]CKPV-NH2; disulfide 2-8 (inferred)) | human MC3R (Homo sapiens, UniProt P41968) | = | 3.5
COc1ccc(C[C@H]2NC(=O)[C@H](CCCNC(N)=O)NC(=O)C(C)(C)NC(=O)[C@@H](NC(=O)[C@H](CCCNC(=N)N)NC(C)=O)CSSC[C@@H](C(N)=O)NC(=O)[C@@H](Cc3c[nH]c4ccccc34)NC(=O)[C@H](CCCNC(=N)N)NC2=O)cc1 [CTX-1600] (Ac-RC[Aib][Cit][dY](Me)R[dW]C-NH2; disulfide 2-8) | human MC3R (Homo sapiens, UniProt P41968) | > | 10000
CCCC[C@H](NC(=O)[C@H](CCCNC(=N)N)NC(C)=O)C(=O)N[C@H]1CSSC[C@@H](C(N)=O)NC(=O)[C@H](Cc2c[nH]c3ccccc23)NC(=O)[C@H](CCCNC(=N)N)NC(=O)[C@@H](Cc2ccc(Br)cc2)NC(=O)[C@H](CCCNC(=N)N)NC1=O [CTX-1612] (Ac-R[Nle]CR[dPhe(4-Br)]RWC-NH2; disulfide 3-8 (inferred)) | human MC3R (Homo sapiens, UniProt P41968) | = | 4.5
CC(=O)N[C@@H](CCCNC(=N)N)C(=O)N[C@H]1CSSC[C@@H](C(N)=O)NC(=O)[C@H](Cc2c[nH]c3ccccc23)NC(=O)[C@H](CCCNC(=N)N)NC(=O)[C@@H](Cc2ccc3ccccc3c2)NC(=O)[C@@H]2CCCN2C(=O)[C@@H](C)NC1=O [CTX-2203] (Ac-RC[dA]P[d2Nal]RWC-NH2; disulfide 2-8 (inferred)) | human MC3R (Homo sapiens, UniProt P41968) | = | 29
CC(=O)N[C@@H](CCCNC(=N)N)C(=O)N[C@H]1CSSC[C@@H](C(N)=O)NC(=O)[C@H](Cc2c[nH]c3ccccc23)NC(=O)[C@H](CCCNC(=N)N)NC(=O)[C@@H](Cc2ccc(Br)cc2)NC(=O)[C@H](Cc2c[nH]cn2)NC(=O)[C@@H](C)NC1=O [CTX-2206] | human MC3R (Homo sapiens, UniProt P41968) | = | 22
CC(=O)N[C@H]1CSSC[C@@H](C(N)=O)NC(=O)[C@H](Cc2ccccc2)NC(=O)[C@H](CCCNC(=N)N)NC(=O)[C@@H](Cc2ccc(Br)cc2)NC(=O)[C@H](CCCNC(=N)N)NC(=O)CNC1=O [CTX-1640] (Ac-CGR[dPhe(4-Br)]RFC-NH2; disulfide 1-7 (inferred)) | human MC3R (Homo sapiens, UniProt P41968) | = | 10
CC(=O)N[C@@H](CCCNC(=N)N)C(=O)N[C@H]1CSSC[C@@H](C(=O)N[C@@H](CCCCN)C(=O)N2CCC[C@H]2C(N)=O)NC(=O)[C@@H](Cc2c[nH]c3ccccc23)NC(=O)[C@H](CCCNC(=N)N)NC(=O)[C@@H](Cc2ccc(Br)cc2)NC(=O)[C@H](CCCNC(=N)N)NC(=O)[C@@H](C)NC1=O [CTX-1217] (Ac-RC[dA]R[dPhe(4-Br)]R[dW]CKP-NH2; disulfide 2-8) | human MC3R (Homo sapiens, UniProt P41968) | = | 4
CC(=O)N[C@@H](CCCNC(=N)N)C(=O)N[C@H]1CSSC[C@@H](C(N)=O)NC(=O)[C@@H](Cc2c[nH]c3ccccc23)NC(=O)[C@H](CCCNC(=N)N)NC(=O)[C@H](Cc2ccc(Br)cc2)NC(=O)[C@H](CCCNC(=N)N)NC(=O)[C@@H](C)NC1=O [CTX-1215] (Ac-RC[dA]R[Phe(4-Br)]R[dW]C-NH2; disulfide 2-8 (inferred)) | human MC3R (Homo sapiens, UniProt P41968) | = | 27
